Target: eOD-GT8 (engineered outer domain germline-targeting version 8), monomer (HIV-1 gp120 engineered outer domain, …)

binder | binding result
G001_gp1_V10_VRC01c_2021-0125 (antibody, V domains shown) VH: QVQLVQSGAEVKKPGASVKVSCKASGYTFTGYYIHWVRQAPGQGLEWMGWLNPNSGGTNYLQKFQDRVTMTRDTSIGTAYMELSTLRSDDTAVYYCARGNSGPWAWRYWGQGTLVTVSS VL: QSALTQPASVSGSPGQSITISCTGTSSDVGGYNSVSWYQQHPGKAPKLMIYDVSNRPSGVSNRFSGSKSGNTASLTISGLQPEDEADYYCSSYEVFGGGTKLTVL | binds
G001_gp1_V08_VRC01c_2021-0069 (antibody, V domains shown) VH: QVQLVQSGAEVKKPGASVKVSCKASGYTFTDYYIHWVRQAPGQGLEWMGWINPNSGGTNYAQKFQDWVTMTRDTSVGTAYMELSRLRSDDTAVYYCARGIWSSWHFDVWGRGTLVTVPS VL: DIQVTQSPSTLSASVGDRVTITCRASQSISNSLAWYQQKPGKAPNLLIYKASILESGVPSRFSGSGSGTEFTLTISSLQPDDFATYYCQQYETFGQGTKVEVT | binds
G001_gp1_V10_VRC01c_183 (antibody, V domains shown) VH: QVHPVQSGAEVKKPGASVKVSCEASGYTFSGYYMHWVRQAPGQGLEWMGWINLNSGGTNYAQKFQDRVTMTRDTSISTAYMELSSLRSDDTAFYYCAHNGGNGGTWYFHYWGQGTLVTVSS VL: EIVLTQSPGTLSLSPGERATLSCRASQSVSNNYLAWYQQKPGQAPRLLIYGASRRATGIPDRFSGSGTGTDFTLTISRLEPEDSAVYYCQQYETFGPGTKVDIK | binds
